pIC50 reference
Target: MAT2A (Homo sapiens, UniProt P31153)
Construct: His6
Sequence (P31153 whole entry): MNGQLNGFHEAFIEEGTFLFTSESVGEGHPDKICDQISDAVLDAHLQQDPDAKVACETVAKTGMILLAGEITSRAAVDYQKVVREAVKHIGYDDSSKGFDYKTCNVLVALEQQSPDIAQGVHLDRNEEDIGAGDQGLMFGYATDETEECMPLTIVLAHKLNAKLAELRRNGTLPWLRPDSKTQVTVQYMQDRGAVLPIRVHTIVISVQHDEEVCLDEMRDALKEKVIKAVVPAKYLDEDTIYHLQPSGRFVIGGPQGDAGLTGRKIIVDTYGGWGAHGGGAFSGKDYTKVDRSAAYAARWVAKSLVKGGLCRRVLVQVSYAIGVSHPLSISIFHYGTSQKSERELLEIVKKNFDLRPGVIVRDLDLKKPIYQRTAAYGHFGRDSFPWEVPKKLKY
Experiment: MAT2A biochemical assay (colorimetric inorganic phosphate detection, PiColorLock)
Conditions: recombinant His6-tagged MAT2A 1 μg/ml; 60 minutes preincubation at 25° C.; L-Met 80 μM, ATP 100 μM; 60 minutes reaction; read at 623 nm; read-out: MAT2A Inhibition Score
Description: In the reaction catalyzed by MAT2A enzyme, L-Met and ATP were converted to SAM, inorganic phosphate, and inorganic diphosphate. […] The concentration of malachite green phosphomolybdate produced in the detection reaction is thus directly related to the quantity of product produced by the MAT2A enzyme. Multiple commercial kits exist for this method of phosphate detection and quantification, such as PiColorLock Gold (Innova Biosciences). […]
pIC50: −log10 of the molar value.

# Compound string, Observed result
data = [
    ("COc1ccc(-c2c(Cn3ncnn3)[nH]c3c(-c4ccccc4)c(-c4ccccc4)nn3c2=O)cc1", "6.00 to 7.00"),
    ("COc1ccc(-c2c(Nc3ccn(COC(=O)[C@@H](N)C(C)C)n3)[nH]c3c(-c4ccccc4)c(-c4ccccc4)nn3c2=O)cc1", "> 7.00"),
    ("Cc1[nH]c2c(N3CCCCC3)c(-c3ccccc3)nn2c(=O)c1-c1cscn1", "5.00 to 6.00"),
    ("COc1ccc(-c2c(Nc3ccccn3)[nH]c3c(-c4ccccc4F)c(-c4ccccc4)nn3c2=O)cc1", "> 7.00"),
    ("COc1ccc(-c2nn3c(=O)c(-c4ccc5ncccc5c4)c(C)[nH]c3c2-c2ccccc2)cn1", "5.00 to 6.00"),
]

Please report the recorded pIC50 for COc1ccc(-c2c(Nc3ccncn3)[nH]c3c(-c4ccccc4)c(-c4ccccc4)nn3c2=O)cc1 . > 7.00

Please report the recorded pIC50 for Cc1[nH]c2c(-c3ccccc3)c(-c3ccccc3)nn2c(=O)c1-c1ccc(O)c(OCCO)c1 . > 7.00

Please report the recorded pIC50 for COc1ccc(-c2c(O)[nH]c3c(C4=CCCCC4)c(-c4ccccc4)nn3c2=O)cc1 . > 7.00

---

target: MAT2A (Homo sapiens); construct: His6; made in house; host or cells: SF9 insect cells; test: MAT2A biochemical assay (colorimetric inorganic phosphate detection, PiColorLock); conditions: recombinant His6-tagged MAT2A 1 μg/ml; 60 minutes preincubation at 25° C.; L-Met 80 μM, ATP 100 μM; 60 minutes reaction; read at 623 nm; read-out: MAT2A Inhibition Score
pIC50: −log10 of the molar value.
pIC50 reference

# Compound string, Target desc, Observed result
data = [
    ("COc1ccc(-c2c(Nc3ccc(C#N)cn3)[nH]c3c(-c4ccccc4)c(-c4ccccc4)nn3c2=O)cc1", "MAT2A (Homo sapiens)", "> 7.00"),
    ("COc1ccc(-c2c(Nc3cncc(C#N)n3)[nH]c3c(-c4ccccc4)c(-c4ccccc4)nn3c2=O)cc1", "MAT2A (Homo sapiens)", "> 7.00"),
    ("O=c1c(-c2ccc3ncccc3c2)c(Cn2cccn2)[nH]c2c(-c3ccccc3)c(-c3ccccc3)nn12", "MAT2A (Homo sapiens)", "6.00 to 7.00"),
]

Please report the recorded pIC50 for COc1ccc(-c2c(Nc3ncns3)[nH]c3c(C4=CCCCC4)c(-c4ccccc4)nn3c2=O)cc1 . > 7.00

Please report the recorded pIC50 for Cc1[nH]c2c(-c3ccccc3)c(-c3ccc(Cl)cc3)nn2c(=O)c1-c1ccc2ncccc2c1 . 5.00 to 6.00
